Assay: yeast display, Sf9 membrane polyspecificity reagent, FACS + sequencing; frameworks hold sequencing errors
readout-kind: polyreactivity (PSR sort gate)

sequence-data: QVQLVESGGGLVQAGGSLRLSCAASGRSFDVNAMGWYRQAPGKERELVAAISTRGGGTYYADSVKGRFTISRDNAKTTVYLQMNSLKPEDTAVYYCNVVRRYGGRGFDYWGQGTQVTVSS
readout-kind: polyreactivity (PSR sort gate)
recorded-value: low polyreactivity
--
sequence-data: QVQLVESGGGLVQAGGSLRLSCAASGSTFQVNVMGWYRPAPGKEREFVAGISYSGGSTYYADSVKGRFTISRDNAKNTVYLQMNSLKPDDTAVYYCAAEEDYNIAGSWTYTYDYWGQGTQVTVSS
readout-kind: polyreactivity (PSR sort gate)
recorded-value: low polyreactivity
--
sequence-data: QDQLVESGGGLVQAGGSLRLSCAASGSIFDVNAMGWYRQAPGKERELVAAISDSGGSTYYADSVKGRFTISRDNAKNTVYLQMNSLKPEDTAVYYCNADWSWYNYYDFDYWGQGTQVTVSS
readout-kind: polyreactivity (PSR sort gate)
recorded-value: low polyreactivity
--
sequence-data: QVQLVESVGGLVQAGGSLRLSSDASGRTFYSNAMGWYREAPGKERELVAGMNIGGGSTYYADSVKGRFTISRDNAKNTVYLQMYSLIPEATAVYYCAALRWGAYRHGYWGQGTQVTVSW
readout-kind: polyreactivity (PSR sort gate)
recorded-value: high polyreactivity
--
sequence-data: QVQLVESGGGLVQAGGSLRLSCAASGRTFRYKAMGWYRQAPGKERELVAAITWNGGRTYYADSVKGRFTISRDNAKNTVYLQMNSLKPEDTAVYYCAAQGTRVDRYPKYDYWGQGTQVTVSS
readout-kind: polyreactivity (PSR sort gate)
recorded-value: high polyreactivity
--
sequence-data: QVQLVESRGGLVQAGGSLRLSCAASGYTFQRYAMGCYRQAPGKEREMVAAISWSSGTTYYADSVKGRFTISRDNAKNTVYLQMNSLKPEDTAVYYCAAAGRQSGGRFYYWGQGTQVTVSS
readout-kind: polyreactivity (PSR sort gate)
recorded-value: high polyreactivity
--
sequence-data: QVQLVESGGGLVQAGGSLRLSCAASGSTFKVYAMGWYRQAPGKERELVAVISGGGRTNYADSVKGRFTISRDNAKNTVYLQMNSLKPEDTAVYYCAALGPYGSARRKYGYWGQGTQVTVSS
readout-kind: polyreactivity (PSR sort gate)
recorded-value: high polyreactivity
--
sequence-data: QVQLVASGGGLVQAGGSLRLSCAATGSIFYINTMGWYRQAPGKERELVAAINFSDGRTYYADSVMGRFTISRDNAKNTVYLQIHSLKPEDTAVYYCAADVYPSEYDYWGQGTQVTVSS
readout-kind: polyreactivity (PSR sort gate)
recorded-value: low polyreactivity
--
sequence-data: QVQLEESAGGLVQAGGSLRLSCAASGSTFYLNAMGSYRQAPGKERELVAAITVSGGSTYYADSVKGRFTISRDNAKNTVYLQMNSLKPEDNAVYYCARELLSPTYQRWYYYWGQGSQVTVSS
readout-kind: polyreactivity (PSR sort gate)
recorded-value: low polyreactivity
--
sequence-data: QVQLVESGGGLVQAGGSLRLSCAASGFIFSQNVMGWYRQAPGKERELVAAISSSGGSTYYADSVKGRFTISRDNAKNTVYLQMNSLKREDTAVYYCAARPYVRFNYWGQGTQVTVSS
readout-kind: polyreactivity (PSR sort gate)
recorded-value: high polyreactivity
--
sequence-data: QVQLVESGGGLVQAGGSLRLTCAASGFTFPDKAMGWYRQAPGNERELVAALTTSGGRTYYADSVKGRFTISRDNAKNTVYLQMNRLKPEDTAVYYCARPSRQSHWYYYWGQGTQVTVSS
readout-kind: polyreactivity (PSR sort gate)
recorded-value: high polyreactivity
